Target: HLA-DP DPA1*02:01/DPB1*05:01 (Homo sapiens, UniProt P04440+P20036, A65V/A84E/F191V/F64L/G113D/G114E/K142R/L158P/M116V/M62Q/P115A/Q81R/R125K/T114A/T199I/T259P/V234M)
Sequence (P20036 29-260 A42M/M62Q/Q81R/T114A/K142R/L158P/F191V/T259P): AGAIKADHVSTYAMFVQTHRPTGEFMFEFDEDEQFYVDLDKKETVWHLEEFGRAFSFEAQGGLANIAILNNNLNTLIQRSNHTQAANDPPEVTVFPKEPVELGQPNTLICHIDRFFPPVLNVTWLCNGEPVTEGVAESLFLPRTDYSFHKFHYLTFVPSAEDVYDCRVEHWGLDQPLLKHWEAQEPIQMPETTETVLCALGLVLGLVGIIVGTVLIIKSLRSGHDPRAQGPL
Sequence (P04440 30-258 F64L/A65V/A84E/G113D/G114E/P115A/M116V/R125K/T199I/V234M): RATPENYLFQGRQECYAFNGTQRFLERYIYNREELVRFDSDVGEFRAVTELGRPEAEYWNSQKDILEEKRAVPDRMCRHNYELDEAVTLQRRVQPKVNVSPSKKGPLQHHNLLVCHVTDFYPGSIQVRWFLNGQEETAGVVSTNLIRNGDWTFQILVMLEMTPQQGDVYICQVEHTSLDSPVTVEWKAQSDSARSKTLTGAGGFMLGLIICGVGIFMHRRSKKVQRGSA
Test: biochemical
Type: binding
Conditions: read-out: Binding capacity/IC50 (nM) DPA1*02:01 DPB1*05:01
Readout type: IC50 (nM)
Numeric answer only, unit nM assumed.

CC[C@H](C)[C@H](NC(=O)[C@H](CCSC)NC(=O)[C@@H](NC(=O)[C@H](CCC(N)=O)NC(=O)[C@H](Cc1c[nH]c2ccccc12)NC(=O)[C@H](CCCNC(=N)N)NC(=O)[C@H](CC(N)=O)NC(=O)[C@H](CCC(=O)O)NC(=O)[C@@H](N)CCSC)C(C)C)C(=O)N[C@H](C(=O)N[C@@H](Cc1c[nH]c2ccccc12)C(=O)N[C@@H](CCC(N)=O)C(=O)N[C@H](C(=O)N[C@@H](CC(=O)O)C(=O)N[C@@H](CCCNC(=N)N)C(N)=O)C(C)C)C(C)C	8170

Recorded IC50 for CC(C)C[C@H](NC(=O)[C@H](CCCCN)NC(=O)[C@@H](NC(=O)[C@H](CC(C)C)NC(=O)[C@@H]1CCCN1C(=O)[C@@H]1CCCN1C(=O)[C@@H](NC(=O)[C@H](CC(N)=O)NC(=O)[C@@H](NC(=O)[C@H](Cc1ccccc1)NC(=O)[C@H](CCC(=O)O)NC(=O)[C@H](Cc1c[nH]c2ccccc12)NC(=O)[C@@H](N)CCC(=O)O)C(C)C)[C@@H](C)O)C(C)C)C(=O)N[C@@H](Cc1c[nH]c2ccccc12)C(=O)N[C@@H](Cc1ccc(O)cc1)C(N)=O , please? 2820

Moving on to the next compound: CC[C@H](C)[C@H](NC(=O)CNC(=O)[C@H](CCCCN)NC(=O)[C@H](Cc1c[nH]cn1)NC(=O)[C@H](C)NC(=O)[C@@H]1CCCN1C(=O)[C@@H](NC(=O)[C@H](Cc1c[nH]c2ccccc12)NC(=O)[C@H](CO)NC(=O)[C@H](CC(C)C)NC(=O)[C@H](Cc1ccc(O)cc1)NC(=O)[C@@H](NC(=O)[C@H](CCCCN)NC(=O)[C@H](CCC(=O)O)NC(=O)[C@@H](N)CCCCN)C(C)C)C(C)C)C(=O)NCC(=O)NCC(=O)N[C@@H](CC(N)=O)C(=O)N[C@@H](CCC(=O)O)C(N)=O 3560

Field entry: CC[C@H](C)[C@H](NC(=O)[C@H](Cc1ccc(O)cc1)NC(=O)CNC(=O)[C@H](CO)NC(=O)[C@H](C)NC(=O)[C@@H](NC(=O)[C@H](Cc1c[nH]cn1)NC(=O)[C@@H](NC(=O)[C@H](C)NC(=O)[C@@H](NC(=O)[C@H](CC(C)C)NC(=O)[C@@H](NC(=O)[C@@H](NC(=O)[C@H](CCCCN)NC(=O)CNC(=O)[C@@H](N)CCC(=O)O)[C@@H](C)CC)[C@@H](C)CC)C(C)C)C(C)C)C(C)C)C(=O)N[C@@H](CCC(=O)O)C(N)=O 2710

And then CSCC[C@H](NC(=O)[C@H](CCCCN)NC(=O)[C@H](C)NC(=O)[C@H](Cc1ccc(O)cc1)NC(=O)[C@H](CCCCN)NC(=O)CNC(=O)[C@@H](NC(=O)[C@H](CCCCN)NC(=O)[C@H](CC(C)C)NC(=O)[C@H](CC(N)=O)NC(=O)[C@H](CCCCN)NC(=O)[C@H](Cc1ccccc1)NC(=O)[C@@H]1CCCN1C(=O)[C@H](CCC(=O)O)NC(=O)[C@@H](N)CCC(N)=O)[C@@H](C)O)C(N)=O , what is it? 1340
